System Under Test: T1, human CD3 (human, UniProt P07766 23-207)
T1 construct: whole, on cells; also called CD3 on human T-cells
T1 sequence (P07766 23-207): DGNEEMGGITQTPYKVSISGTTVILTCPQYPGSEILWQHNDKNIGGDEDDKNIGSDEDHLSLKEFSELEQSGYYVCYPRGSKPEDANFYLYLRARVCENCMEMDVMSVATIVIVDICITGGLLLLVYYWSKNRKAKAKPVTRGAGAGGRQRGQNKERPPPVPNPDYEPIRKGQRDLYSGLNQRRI
Experiment Notes: cell binding, activated human PBMC; E. coli protein
Hi there, I'd appreciate the recorded EC50 for every entry that follows.
Provide only the numeric value, understood in nM.

Query string: # return recorded EC50 for input Fab1-HS115-pAF1 (Fab, V domains shown, para-acetyl-phenylalanine (pAF) at HS115 (Kabat), From E. coli; also called Fab1 HS115pAF, unconjugated) VH: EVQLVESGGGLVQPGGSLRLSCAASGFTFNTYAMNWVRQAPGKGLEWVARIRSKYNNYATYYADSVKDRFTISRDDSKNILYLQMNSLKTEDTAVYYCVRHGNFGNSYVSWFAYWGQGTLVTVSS VL: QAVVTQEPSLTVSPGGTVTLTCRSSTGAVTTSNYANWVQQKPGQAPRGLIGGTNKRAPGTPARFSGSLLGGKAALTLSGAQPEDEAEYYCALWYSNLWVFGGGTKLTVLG
Result string: 1.26

Query string: Could you please provide reported EC50 for Fab1-HS115-Folate (Fab, V domains shown, pAF at HS115 (Kabat) conjugated to folate (oxime), From E. coli; Fab-folate conjugate) VH: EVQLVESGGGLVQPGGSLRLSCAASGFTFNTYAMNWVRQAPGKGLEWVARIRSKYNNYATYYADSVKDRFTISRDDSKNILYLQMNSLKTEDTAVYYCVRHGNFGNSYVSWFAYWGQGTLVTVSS VL: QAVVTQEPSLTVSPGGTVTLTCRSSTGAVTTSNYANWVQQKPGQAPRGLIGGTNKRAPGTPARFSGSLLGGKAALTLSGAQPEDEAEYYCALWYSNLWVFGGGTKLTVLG ? Thanks!
Result string: 1.41

Query string: For the binder Fab1 wildtype (vH1.2+CH1 / vL1.2+CL), humanized anti-CD3 SP34 (Fab, V domains shown, also called Fab1-WT; vH1.2+vL1.2) VH: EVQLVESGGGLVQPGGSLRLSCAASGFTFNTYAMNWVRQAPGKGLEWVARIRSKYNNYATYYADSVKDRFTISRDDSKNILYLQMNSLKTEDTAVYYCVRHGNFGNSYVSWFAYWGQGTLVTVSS VL: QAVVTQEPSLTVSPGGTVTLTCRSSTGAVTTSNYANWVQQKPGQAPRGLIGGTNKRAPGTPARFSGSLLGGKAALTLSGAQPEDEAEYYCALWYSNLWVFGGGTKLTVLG , report EC50.
Result string: 0.93

Query string: Give the reported value of EC50 for this record: Fab1-HK129-pAF (Fab, V domains shown, para-acetyl-phenylalanine (pAF) at HK129 (Kabat), From E. coli; carries no folate and no PEG; also called Fab1-HK129-pAF1; anti-CD3 Fab1-HK129-pAF control) VH: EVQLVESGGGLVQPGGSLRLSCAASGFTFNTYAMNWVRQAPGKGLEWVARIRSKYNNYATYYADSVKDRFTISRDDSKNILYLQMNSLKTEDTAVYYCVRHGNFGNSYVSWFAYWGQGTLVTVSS VL: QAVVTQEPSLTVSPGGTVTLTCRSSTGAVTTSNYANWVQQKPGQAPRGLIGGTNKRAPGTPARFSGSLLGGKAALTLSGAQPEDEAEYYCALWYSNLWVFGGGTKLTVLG
Result string: 1.14

Query string: Answer with the recorded EC50 of Fab1-HA114-Folate (Fab, V domains shown, pAF at HA114 (Kabat) conjugated to folate (oxime), From E. coli; Fab-folate conjugate) VH: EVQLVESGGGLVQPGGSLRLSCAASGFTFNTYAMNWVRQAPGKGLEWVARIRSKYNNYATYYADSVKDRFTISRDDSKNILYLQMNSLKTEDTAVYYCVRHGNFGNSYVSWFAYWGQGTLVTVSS VL: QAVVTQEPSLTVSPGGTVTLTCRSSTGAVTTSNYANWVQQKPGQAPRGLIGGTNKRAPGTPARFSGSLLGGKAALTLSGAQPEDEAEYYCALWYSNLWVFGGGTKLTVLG only.
Result string: 1.27

Query string: Specify EC50 for Fab1-HA114-pAF1 (Fab, V domains shown, para-acetyl-phenylalanine (pAF) at HA114 (Kabat), From E. coli; also called Fab1 HA114pAF, unconjugated) VH: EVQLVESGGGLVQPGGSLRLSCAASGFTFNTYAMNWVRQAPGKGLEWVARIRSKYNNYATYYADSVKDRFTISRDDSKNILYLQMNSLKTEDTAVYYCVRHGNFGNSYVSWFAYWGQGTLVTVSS VL: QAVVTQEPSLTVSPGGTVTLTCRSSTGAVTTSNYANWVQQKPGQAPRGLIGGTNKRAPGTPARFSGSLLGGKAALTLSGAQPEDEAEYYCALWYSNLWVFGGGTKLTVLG and stop.
Result string: 1.35
